- System Name: UniProt:Q02127
- Sequence (Q02127 whole entry): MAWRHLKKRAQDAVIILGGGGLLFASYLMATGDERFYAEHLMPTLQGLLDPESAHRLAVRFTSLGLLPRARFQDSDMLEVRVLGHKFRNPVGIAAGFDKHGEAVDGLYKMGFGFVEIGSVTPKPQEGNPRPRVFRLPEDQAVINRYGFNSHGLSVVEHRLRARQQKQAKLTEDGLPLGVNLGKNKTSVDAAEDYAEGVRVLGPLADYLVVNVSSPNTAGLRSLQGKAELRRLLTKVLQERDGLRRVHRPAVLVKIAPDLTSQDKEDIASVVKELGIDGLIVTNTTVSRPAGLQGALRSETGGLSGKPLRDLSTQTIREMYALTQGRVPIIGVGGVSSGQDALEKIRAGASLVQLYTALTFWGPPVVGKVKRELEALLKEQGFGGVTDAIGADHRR
pIC50: −log10 of the molar value.
Entry flag: 1.0 if pIC50 reaches 8; 0.0 if it does not.

Use the examples below as a reference point.
INSERT INTO assay_data (cpd_smiles, system_name, class_assignment) VALUES
  ('COc1cccc(-c2ccc(Nc3ncccc3C(=O)O)c(Cl)c2)c1', 'UniProt:Q02127', 0.0),
  ('COc1cccc(-c2ccc(Nc3ncc(C4CC4)cc3C(=O)O)c(F)c2)c1', 'UniProt:Q02127', 0.0),
  ('O=C(O)c1cc(C2CC2)cnc1Nc1c(F)cc(-c2ccccc2Cl)cc1F', 'UniProt:Q02127', 1.0),
  ('CCOc1cccc(-c2cc(F)c(Nc3ncc(C4CC4)cc3C(=O)O)cc2F)c1', 'UniProt:Q02127', 0.0),
  ('O=C(O)c1cc(C2CC2)cnc1Nc1c(F)cc(-c2cccc(OC(F)(F)F)c2)cc1F', 'UniProt:Q02127', 1.0);

I'd appreciate it if you could say whether "O=C(O)c1ccncc1Nc1ccc(-c2cccc(OC(F)(F)F)c2)cc1F" has pIC50 at least equal to 8.
0.0

I'd appreciate it if you could say whether "Cc1c(-c2ccccc2)cc(F)c(Nc2ncccc2C(=O)O)c1F" has pIC50 at least equal to 8.
1.0

I'd appreciate it if you could say whether "CCOc1cccc(-c2ccc(Nc3cnccc3C(=O)O)c(F)c2)c1" has pIC50 at least equal to 8.
0.0

Attribution: patent US8691852B2
